Target: Gonadotropin-releasing hormone receptor (Homo sapiens) (UniProt P30968)
Sequence (P30968 whole entry, looked up): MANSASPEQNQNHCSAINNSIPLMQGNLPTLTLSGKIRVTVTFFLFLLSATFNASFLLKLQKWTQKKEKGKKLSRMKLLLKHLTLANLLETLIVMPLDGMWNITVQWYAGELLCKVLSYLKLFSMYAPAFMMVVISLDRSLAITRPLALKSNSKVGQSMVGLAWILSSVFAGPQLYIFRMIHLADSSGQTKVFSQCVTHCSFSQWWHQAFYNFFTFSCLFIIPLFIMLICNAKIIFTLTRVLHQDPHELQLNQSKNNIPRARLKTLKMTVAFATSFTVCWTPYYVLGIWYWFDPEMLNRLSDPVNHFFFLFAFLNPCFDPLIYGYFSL
Assay: Human gonadotropin-releasing hormone receptor (GnRHR) small molecule agonists, calcium flux assay in GnRHR-HEK293 cells (AID 1920063); note: nearly all actives have a fitted effect of over 35% in size
Conditions: calcium flux fluorescence, agonist mode; series mostly up to 57.6 µM
Active and inactive are the calls of the source. Calls come from the whole dose curve.
Labels: YES (active), NO (inactive)

| compound | class |
| --- | --- |
| CNC(=O)Oc1ccc2c(c1)[C@]1(C)CCN(C)[C@@H]1N2C | NO |
| C=C(C)C(=O)O[C@H]1C[C@@H]2CC[C@@]1(C)C2(C)C | NO |
| Cc1cc(C)c(C)cc1C | NO |
| O=C1O[C@H]([C@H](O)CO)C(O)=C1O | NO |
| OCC1CCCO1 (centres undefined) | NO |
| COC(C)COC(C)COC(C)CO (centres undefined) | NO |
| NCCCCCCN | NO |
| CC(C)c1cccc(C(C)C)c1 | NO |
| NC(=O)c1cccnc1 | NO |
| Nc1ccc(S(=O)(=O)Nc2nccs2)cc1 | NO |
| CCOCC(=O)O | NO |
| Cc1cn([C@H]2C=C[C@@H](CO)O2)c(=O)[nH]c1=O | NO |
| O=C(O)CCCCCCCC(=O)O | NO |
| C[C@]12CC[C@@H]3c4ccc(O)cc4C[C@@H](CCCCCCCCCS(=O)CCCC(F)(F)C(F)(F)F)[C@H]3[C@@H]1CC[C@@H]2O (some centres undefined) | NO |
| CCCCCCCC/C=C\CCCCCCCC(=O)O | NO |
| COC(=O)c1ccccc1O | NO |
| CCc1ccc(O)cc1 | NO |
| CN/C(=C\[N+](=O)[O-])NCCSCc1csc(CN(C)C)n1 | NO |
| COc1ccc(O)cc1 | NO |
| Oc1c(Cl)cc(Cl)c(Cl)c1Cl | NO |
| C=CC(C)(CCC=C(C)C)OC(C)=O (centres undefined) | NO |
| CCC(Cc1c(I)cc(I)c(N)c1I)C(=O)O (centres undefined) | NO |
| CC(C)=CCO | NO |
| CCCC(CCC)C(=O)O | NO |
| CC[Si](OC(C)=O)(OC(C)=O)OC(C)=O | NO |
| NCCN1CCNCC1 | NO |
| Nc1nc(=S)c2[nH]cnc2[nH]1 | NO |
| O=C(O)c1ccccc1C(=O)O | NO |
| COc1ccc(C(=O)c2ccccc2)c(O)c1 | NO |
| Cc1ccc(S(=O)(=O)O)cc1 | NO |
| CCCCCCCCCCCCOC(=O)c1cc(O)c(O)c(O)c1 | NO |
| O=S(=O)(O)c1ccc2nc(-c3ccccc3)[nH]c2c1 | NO |
| O=C(O)c1cc(C(=O)O)cc(S(=O)(=O)O)c1 | NO |
| CCc1ccc(CCOc2ccc(CC3SC(=O)NC3=O)cc2)nc1 (centres undefined) | NO |
| CC(C)(C)NC(=O)[C@H]1CC[C@H]2[C@@H]3CC[C@H]4NC(=O)C=C[C@]4(C)[C@H]3CC[C@]12C | NO |
| C=C(C)C(=O)OCCCCCCCCCCCC | NO |
| O=C(OCc1ccccc1)c1ccc(O)cc1 | NO |
| COCCc1ccc(OCC(O)CNC(C)C)cc1 (centres undefined) | NO |
| CCCCC(CC)COC(=O)C(C#N)=C(c1ccccc1)c1ccccc1 (centres undefined) | NO |
| O=C1OC2(c3ccccc31)c1cc(I)c(O)c(I)c1Oc1c2cc(I)c(O)c1I | YES |
| CCCCC(CC)COC(=O)c1ccc(C(=O)OCC(CC)CCCC)cc1 (centres undefined) | NO |
| C/C=C1/CC2C=CC1C2 (centres undefined) | NO |
| c1cc(-c2ccncc2)ccn1 | NO |
| CCc1cccc(O)c1 | NO |
| O=C(O)C(=O)O | NO |
| Nc1ccccc1[N+](=O)[O-] | NO |
| CN(C)CCCN | NO |
| C=C(C)C(=O)OCC(CC)(COC(=O)C(=C)C)COC(=O)C(=C)C | NO |
| F[B-](F)(F)F | NO |
| C/C=C/c1ccc(O)c(OC)c1 | NO |
| CCNc1ccccc1 | NO |
| CC(=O)CCc1ccccc1 | NO |
| C=C(C)C(=O)OCCCCCC | NO |
| C[N+](C)(C)CCCCCC[N+](C)(C)C | NO |

All values here come from PubChem BioAssay (Tox21).
